system-tested: D(2) dopamine receptor (Homo sapiens)
run-description: Dopamine D2 receptor (DRD2) small molecule agonists, cell-based qHTS assay (AID 1963594); further: nearly all actives have a fitted effect of over 35% in size
study-conditions: HEK293-DRD2 cAMP HTRF, agonist mode, 30 min; series mostly up to 92.4 µM
Inconclusive results are not listed. Calls of active or inactive are those of the source. The call rests on the fitted dose curve.
Form entry, call: pick from active, inactive

{"compound": "Oc1ccc([C@H]2CNCc3c2ccc(O)c3O)cc1O", "system-tested": "D(2) dopamine receptor (Homo sapiens)", "class": "active"}

Could you now look at the following compound, please?
[in] Outcome? CNC(=O)O/N=C(\C)C(C)S(C)(=O)=O (stereo not drawn)
[out] inactive

* * *

run-description: p53 small molecule agonists, cell-based qHTS assay: qHTS cell viability counter screen (AID 1963581); further: nearly all actives have a fitted effect of over 45% in size
study-conditions: p53RE-bla HCT-116 viability, ATP luminescence, 16 h; series mostly up to 66 µM
Records with an inconclusive call do not appear. Activity calls are given as the source filed them. Calls come from the whole dose curve.
Form entry, call: pick from active, inactive

Consider the worked cases shown below.
{"compound": "S=C=NCCc1ccccc1", "class": "inactive"}
{"compound": "CC(C)(C)c1ccc(OP(=O)(Oc2ccccc2)Oc2ccccc2)cc1", "class": "inactive"}
{"compound": "COP(N)(=S)OC", "class": "inactive"}
{"compound": "CC[C@H]1C[C@H]2[C@@H]3CCC4=CC(=O)CC[C@@H]4[C@H]3CC[C@]2(C)[C@H]1O", "class": "inactive"}
{"compound": "CCC(C)Nc1c([N+](=O)[O-])cc(C(C)(C)C)cc1[N+](=O)[O-] (stereo not given)", "class": "inactive"}
{"compound": "ClC=C(Cl)Cl", "class": "inactive"}
{"compound": "NC1=NC(=O)C(c2ccccc2)O1 (stereo not given)", "class": "inactive"}
{"compound": "CC[C@H](C)[C@H]1O[C@]2(C=C[C@@H]1C)C[C@@H]1C[C@@H](C/C=C(\\C)[C@@H](O[C@H]3C[C@H](OC)[C@@H](O[C@H]4C[C@H](OC)[C@@H](O)[C@H](C)O4)[C@H](C)O3)[C@@H](C)/C=C/C=C3\\CO[C@@H]4[C@H](O)C(C)=C[C@@H](C(=O)O1)[C@]34O)O2", "class": "active"}

[in] Outcome? O=NN1CCNCC1
[out] inactive

[in] Outcome? Clc1cccc(N2CCNCC2)c1
[out] inactive

* * *

system-tested: Muscarinic acetylcholine receptor M1 (Homo sapiens)
run-description: Cholinergic receptor muscarinic 1 (CHRM1) small molecule antagonists, cell-based qHTS assay (AID 1963588); further: on the % scale 0 is the no-effect control and ±100 the full control effect; nearly all actives have a fitted effect of over 40% in size
study-conditions: CHRM1-CHO antagonist mode, calcium flux fluorescence; series mostly up to 61.5 µM
Records with an inconclusive call do not appear. Calls of active or inactive are those of the source. The call rests on the fitted dose curve.
measured-property: outcome

{"molecule": "CCOC(=O)NC(O)C(Cl)(Cl)Cl (stereo not drawn)", "observed-value": "inactive"}
{"molecule": "BrCC1CO1 (stereo not drawn)", "observed-value": "inactive"}
{"molecule": "CC(C)CP(=S)(S)CC(C)C", "observed-value": "inactive"}

* * *

system-tested: Beta-2 adrenergic receptor (Homo sapiens) (UniProt P07550)
Sequence (P07550 whole entry, looked up): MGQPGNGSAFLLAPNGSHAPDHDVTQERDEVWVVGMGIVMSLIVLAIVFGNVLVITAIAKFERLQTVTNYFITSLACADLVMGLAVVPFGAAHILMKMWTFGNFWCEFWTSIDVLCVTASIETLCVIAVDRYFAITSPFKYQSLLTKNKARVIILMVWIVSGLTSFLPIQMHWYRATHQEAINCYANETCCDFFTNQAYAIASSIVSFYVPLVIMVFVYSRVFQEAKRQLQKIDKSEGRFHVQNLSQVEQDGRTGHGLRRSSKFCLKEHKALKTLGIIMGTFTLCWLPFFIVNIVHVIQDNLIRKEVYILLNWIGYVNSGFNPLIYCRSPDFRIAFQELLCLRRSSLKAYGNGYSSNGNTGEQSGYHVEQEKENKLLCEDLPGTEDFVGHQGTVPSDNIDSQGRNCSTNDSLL
run-description: Adrenergic beta2 receptor (ADRB2) small molecule antagonists, cell-based qHTS assay (AID 1963592); further: on the % scale 0 is the no-effect control and ±100 the full control effect; nearly all actives have a fitted effect of over 50% in size
study-conditions: CHO-ADRB2 cells, isoproterenol-stimulated cAMP HTRF ratio, 0.5 h; series mostly up to 92.4 µM
Records with an inconclusive call do not appear. Active and inactive are the calls of the source. The call rests on the fitted dose curve.

{"smiles-record": "ClC(Cl)=C(Cl)Cl", "outcome": "inactive"}
{"smiles-record": "O=C(N[C@@H]1N=C(c2ccccc2F)c2cccc3c2N(CC3)C1=O)c1cc2ccccc2[nH]1", "outcome": "inactive"}
{"smiles-record": "COP(=O)(OC)O/C(=C\\Cl)c1cc(Cl)c(Cl)cc1Cl", "outcome": "inactive"}
{"smiles-record": "O=[Se]=O", "outcome": "inactive"}

* * *

run-description: Nuclear factor erythroid 2-related factor 2/antioxidant responsive element (Nrf2/ARE) small molecule agonists: luciferase reporter gene qHTS assay in human keratinocytes (AID 1919969); further: on the % scale 0 is the no-effect control and ±100 the full control effect; nearly all actives have a fitted effect of over 35% in size
study-conditions: KeratinoSens HaCaT ARE-luciferase, luminescence, 24 h; series mostly up to 92.4 µM
Results filed as inconclusive are left out. Active and inactive are the calls of the source. Calls follow the shape of the full dose curve.
Form entry, call: pick from y (active), n (inactive)

Consider the worked cases shown below.
{"molecule": "COc1ccc(OC)c(C=O)c1", "class": "n"}
{"molecule": "CN1COCN(Cc2cnc(Cl)s2)/C1=N\\[N+](=O)[O-]", "class": "n"}
{"molecule": "BrCCCCBr", "class": "n"}
{"molecule": "C=CCC1([C@H](C)CCC)C(=O)NC(=O)NC1=O", "class": "n"}
{"molecule": "O=C1CN2CCOC2(c2ccccc2Cl)c2cc(Cl)ccc2N1 (stereo not given)", "class": "n"}

[in] Outcome? Nc1c(Cl)c(F)nc(OCC(=O)O)c1Cl
[out] n

* * *

run-description: p53 small molecule agonists, cell-based qHTS assay with rat liver microsomes: qHTS cell viability counter screen (AID 1963580); further: nearly all actives have a fitted effect of over 45% in size
study-conditions: p53RE-bla HCT-116 + rat microsomes, ATP viability, 16 h; series mostly up to 66 µM
Inconclusive results are not listed. Activity calls are given as the source filed them. Calls follow the shape of the full dose curve.
Form entry, call: pick from active, inactive

{"compound": "Cc1cc(C)nc(Nc2ccccc2)n1", "class": "inactive"}

[in] Outcome? CNC(=O)Oc1cc(C)c(N(C)C)c(C)c1
[out] inactive

[in] Outcome? ClC(Cl)(Cl)Cl
[out] inactive

[in] Outcome? COc1ccc(C(c2ccc(OC)cc2)C(Cl)(Cl)Cl)cc1
[out] inactive

[in] Outcome? CCN(CC)CCc1c[nH]c2ccccc12
[out] inactive

[in] Outcome? CCCCNC(=O)OCC#CI
[out] inactive

[in] Outcome? NC1CCC(CC2CCC(N)CC2)CC1 (configuration not stated)
[out] inactive

* * *

run-description: cAMP Responsive Elements (CRE) small molecule antagonists, cell-based qHTS assay (AID 1963591); further: on the % scale 0 is the no-effect control and ±100 the full control effect
study-conditions: CRE-bla HEK293T, beta-lactamase FRET ratio; series mostly up to 92.4 µM
Results filed as inconclusive are left out. Calls of active or inactive are those of the source. Calls come from the whole dose curve; as a rule, active = well fitted inhibition curve with a large enough effect in the signal ratio in the repeat runs (not every such curve was filed as active); inconclusive = weak or mixed curves, or effect the other way; inactive = flat fitted curve, though single readings scatter; the % refers to the signal ratio.
Form entry, call: pick from true (1) for active, false (0) for inactive

[in] Outcome? Nc1nc(N)nc(N)n1
[out] false (0)

[in] Outcome? Cc1cc(Cl)ccc1O[C@H](C)C(=O)O
[out] false (0)

* * *

run-description: p53 small molecule agonists, cell-based qHTS assay with rat liver microsomes: qHTS cell viability counter screen (AID 1963580); further: nearly all actives have a fitted effect of over 45% in size
study-conditions: p53RE-bla HCT-116 + rat microsomes, ATP viability, 16 h; series mostly up to 66 µM
Inconclusive results are not listed. Calls of active or inactive are those of the source. Calls follow the shape of the full dose curve.
Form entry, call: pick from YES = active, NO = inactive

{"compound": "ClC=C(Cl)Cl", "class": "NO"}
{"compound": "NC1=NC(=O)C(c2ccccc2)O1 (stereo not given)", "class": "NO"}
{"compound": "Cc1ccc([N+](=O)[O-])[c]2c1[O][Hg]2", "class": "YES"}
{"compound": "CC#C[C@]1(O)CC[C@H]2[C@@H]3C[C@H](C)C4=CC(=O)CC[C@]4(C)[C@H]3CC[C@@]21C", "class": "NO"}
{"compound": "C#CC(C)(C)O", "class": "NO"}
{"compound": "O=NN1CCNCC1", "class": "NO"}
{"compound": "O=CNC(N1CCN(C(NC=O)C(Cl)(Cl)Cl)CC1)C(Cl)(Cl)Cl (stereo not given)", "class": "NO"}
{"compound": "CCC(=O)c1ccc(Cl)cc1", "class": "NO"}
{"compound": "Clc1cc(Cl)c(Cl)c(Cl)c1", "class": "NO"}

[in] Outcome? O=c1c(C2CC(c3ccc(-c4ccc(Br)cc4)cc3)Cc3ccccc32)c(O)sc2ccccc12 (stereo not given)
[out] NO

* * *

system-tested: 5-hydroxytryptamine receptor 2A (Homo sapiens)
run-description: 5-hydroxytryptamine receptor 2A (HTR2A) small molecule antagonists, cell-based qHTS assay (AID 1963586); further: on the % scale 0 is the no-effect control and ±100 the full control effect; nearly all actives have a fitted effect of over 45% in size
study-conditions: HTR2A-CHO cells, DOI-induced calcium flux, fluorescence; series mostly up to 61.5 µM
Inconclusive results are not listed. The source made the active and inactive calls. Calls come from the whole dose curve.
Form entry, call: pick from active, inactive

Consider the worked cases shown below.
{"molecule": "O=NN1CCNCC1", "system-tested": "5-hydroxytryptamine receptor 2A (Homo sapiens)", "class": "inactive"}
{"molecule": "c1cc[c]([Sb]([c]2ccccc2)[c]2ccccc2)cc1", "system-tested": "5-hydroxytryptamine receptor 2A (Homo sapiens)", "class": "inactive"}
{"molecule": "CNC(=O)Oc1cc(C)c(N(C)C)c(C)c1", "system-tested": "5-hydroxytryptamine receptor 2A (Homo sapiens)", "class": "inactive"}
{"molecule": "CN=CNc1ccc(C)cc1C", "system-tested": "5-hydroxytryptamine receptor 2A (Homo sapiens)", "class": "inactive"}
{"molecule": "CNC(=O)O/N=C(/CSC)C(C)(C)C", "system-tested": "5-hydroxytryptamine receptor 2A (Homo sapiens)", "class": "inactive"}

[in] Outcome? C(COCC1CO1)OCC1CO1 (stereo not given)
[out] inactive

[in] Outcome? COP(=O)(OC)Oc1ccc([N+](=O)[O-])cc1
[out] inactive
